Tested on: MRSA
assayMethodText: Oxford cup assay, zone of inhibition
Type: cell-based
experimentalParameters: Staphylococcus aureus, 160 µg/mL
measurementName: zone of inhibition at 160 µg/mL (mm)
Reply with just the number (in mm).

// solved cases for zone of inhibition at 160 µg/mL follow
[
  {
    "compound": "C=C[C@]1(C)C[C@@H](OC(=O)CSc2nc3ccc(NC(=O)c4cccc(OC)c4)cc3[nH]2)[C@]2(C)[C@H](C)CC[C@]3(CCC(=O)[C@H]32)[C@@H](C)[C@@H]1O [Compound 4h]",
    "measurementName": "zone of inhibition at 160 µg/mL",
    "valueReported": 16.3
  },
  {
    "compound": "C=C[C@]1(C)C[C@@H](OC(=O)CSc2nc3ccc(NC(=O)c4ccc(Cl)cc4)cc3[nH]2)[C@]2(C)[C@H](C)CC[C@]3(CCC(=O)[C@H]32)[C@@H](C)[C@@H]1O [Compound 4c]",
    "measurementName": "zone of inhibition at 160 µg/mL",
    "valueReported": 14.6
  },
  {
    "compound": "C=C[C@]1(C)C[C@@H](OC(=O)CSc2nc3ccc(NC(=O)c4ccccc4C)cc3[nH]2)[C@]2(C)[C@H](C)CC[C@]3(CCC(=O)[C@H]32)[C@@H](C)[C@@H]1O [Compound 4d]",
    "measurementName": "zone of inhibition at 160 µg/mL",
    "valueReported": 16.3
  },
  {
    "compound": "C=C[C@]1(C)C[C@@H](OC(=O)CSc2nc3ccc(NC(=O)c4ccccc4Cl)cc3[nH]2)[C@]2(C)[C@H](C)CC[C@]3(CCC(=O)[C@H]32)[C@@H](C)[C@@H]1O [Compound 4a]",
    "measurementName": "zone of inhibition at 160 µg/mL",
    "valueReported": 15.9
  },
  {
    "compound": "C=C[C@]1(C)C[C@@H](OC(=O)CSc2nc3ccc(NC(=O)c4cc5ccccc5[nH]4)cc3[nH]2)[C@]2(C)[C@H](C)CC[C@]3(CCC(=O)[C@H]32)[C@@H](C)[C@@H]1O [Compound 4l]",
    "measurementName": "zone of inhibition at 160 µg/mL",
    "valueReported": 19.8
  },
  {
    "compound": "C=C[C@]1(C)C[C@@H](OC(=O)CSc2nc3ccc(N)cc3[nH]2)[C@]2(C)[C@H](C)CC[C@]3(CCC(=O)[C@H]32)[C@@H](C)[C@@H]1O [Compound 3]",
    "measurementName": "zone of inhibition at 160 µg/mL",
    "valueReported": 25.4
  },
  {
    "compound": "C=C[C@]1(C)C[C@@H](OC(=O)CSc2nc3ccc(NC(=O)C4CCCCC4)cc3[nH]2)[C@]2(C)[C@H](C)CC[C@]3(CCC(=O)[C@H]32)[C@@H](C)[C@@H]1O [Compound 4j]",
    "measurementName": "zone of inhibition at 160 µg/mL",
    "valueReported": 28
  },
  {
    "compound": "C=C[C@]1(C)C[C@@H](OC(=O)CSc2nc3ccc(NC(=O)c4ccccc4OC)cc3[nH]2)[C@]2(C)[C@H](C)CC[C@]3(CCC(=O)[C@H]32)[C@@H](C)[C@@H]1O [Compound 4g]",
    "measurementName": "zone of inhibition at 160 µg/mL",
    "valueReported": 19.1
  }
]

Problem: Look up zone of inhibition at 160 µg/mL: C=C[C@]1(C)C[C@@H](OC(=O)CSc2nc3ccc(NC(=O)c4ccc[nH]4)cc3[nH]2)[C@]2(C)[C@H](C)CC[C@]3(CCC(=O)[C@H]32)[C@@H](C)[C@@H]1O [Compound 4k]
Result: 26.5

Values were extracted from paper PMC6273978.
